Species: Rattus norvegicus
Experiment: DrugMatrix - Regimen: Daily Repeat
Format: toxicity, organism-based, Sprague-Dawley
Set-up: regimen Daily Repeat, gender Male, age 6-8 weeks
Conditions: in vivo, iv, 0 mg/kg, 120 h, tissue Plasma, dose level Control, time 5 day, vehicle 100 % SALINE
Starred links: 1 amine or outer side, 2 acyl side, 3 side chain; linkers in the order of their positions; H or OH if unused. Positions of bridges follow the written chain, without caps; N, C: chain ends. Non-standard residues stand in square brackets, D forms with d. Residues, ends and D or L forms follow the SMILES beside them. Chains are numbered I, II in the order given. Actinocin(9to1) = Cc1c2oc3c(C)ccc(C(=O)[*:1])c3nc-2c(C(=O)[*:2])c(N)c1=O; NMeV = CN[C@H](C(=O)O)C(C)C; Sar = CNCC(=O)O
Catalogue of compounds with associated TOTAL BILIRUBIN

compound: CC[C@]1(O)C[C@H]2CN(CCc3c([nH]c4ccccc34)[C@@](C(=O)OC)(c3cc4c(cc3OC)N(C=O)[C@H]3[C@@](O)(C(=O)OC)[C@H](OC(C)=O)[C@]5(CC)C=CCN6CC[C@]43[C@@H]65)C2)C1
readout-unit: mg/dL
TOTAL BILIRUBIN: 0.18
//
compound: COc1cc2c3cc1Oc1cc(ccc1O)C[C@@H]1c4c(cc(OC)c(O)c4Oc4ccc(cc4)C[C@@H]3N(C)CC2)CC[N+]1(C)C.[Cl-]
readout-unit: mg/dL
TOTAL BILIRUBIN: 0.18
//
compound: Cc1c2oc3c(C)ccc(C(=O)N[C@@H]4C(=O)N[C@H](C(C)C)C(=O)N5CCC[C@H]5C(=O)N(C)CC(=O)N(C)[C@@H](C(C)C)C(=O)O[C@@H]4C)c3nc-2c(C(=O)N[C@@H]2C(=O)N[C@H](C(C)C)C(=O)N3CCC[C@H]3C(=O)N(C)CC(=O)N(C)[C@@H](C(C)C)C(=O)O[C@@H]2C)c(N)c1=O [DACTINOMYCIN] (I: T[dV]P[Sar][NMeV] / II: T[dV]P[Sar][NMeV]; ester I:1-I:C, II:1-II:C; linker I:N-II:N via Actinocin(9to1))
readout-unit: mg/dL
TOTAL BILIRUBIN: 0.18
//
compound: Cc1ccc(N(CC2=NCCN2)c2cccc(O)c2)cc1
readout-unit: mg/dL
TOTAL BILIRUBIN: 0.17
